Cited source for all entries: patent US20250236608A1

target-or-system: EGFR (d746-750) (Homo sapiens (Human), UniProt P00533, DEL746-750)
Sequence (P00533 other isoform, or with tags, fused parts or gaps del 1-694/del 746-750 limits assumed): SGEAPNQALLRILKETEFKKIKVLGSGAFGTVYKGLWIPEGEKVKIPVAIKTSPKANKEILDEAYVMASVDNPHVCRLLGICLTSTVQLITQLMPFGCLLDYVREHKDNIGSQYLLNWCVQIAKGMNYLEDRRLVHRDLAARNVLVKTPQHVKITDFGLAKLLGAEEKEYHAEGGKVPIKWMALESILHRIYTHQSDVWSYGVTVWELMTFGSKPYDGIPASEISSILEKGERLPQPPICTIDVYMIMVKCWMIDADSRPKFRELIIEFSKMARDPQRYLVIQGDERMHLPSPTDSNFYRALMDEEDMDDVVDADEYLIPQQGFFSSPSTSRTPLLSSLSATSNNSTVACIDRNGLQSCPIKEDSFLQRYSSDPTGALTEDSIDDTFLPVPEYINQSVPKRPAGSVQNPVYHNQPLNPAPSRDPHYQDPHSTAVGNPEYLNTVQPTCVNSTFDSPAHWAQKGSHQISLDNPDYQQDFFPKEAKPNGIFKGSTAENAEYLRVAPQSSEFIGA
method: Biochemical EGFR inhibition assay, EGFR (d746-750)
experimental-parameters: Caliper mobility shift; 1.0 mM ATP or ATP Km; read-out: Enz EGFR_Exon19-del746-750 IC50
reported-endpoint: IC50 (nM)
Provide the reading as a plain figure in nM.

# lookup: IC50 of CN(C)CCOc1cc2ncnc(-c3cn(C)nc3-c3ccccc3)c2nc1NC(=O)C12COCC1C2 (stereo not shown)
3.1

Consider the molecule COc1cc2ncnc(-c3cn(C)nc3-c3ccccc3)c2nc1NC(=O)[C@H]1C[C@H]2C[C@H]2N1C and give its measured IC50.
1

Could you tell me which IC50 is on file for CCn1cc(-c2ncnc3cc(OC)c(N4CCOCC4)cc23)c(-c2ccccc2)n1 ?
0.9

Using the record for CCC(=O)Nc1cc2c(-c3cnn(C4CCOCC4)c3-c3ccccc3)ncnc2cc1OC , report its IC50.
349

Param item = COc1cc2ncnc(-c3cn(C)nc3-c3ccccc3)c2cc1OC(=O)N1CCO[C@H](C)[C@@H]1C ; retrieve measured IC50.
3.2

Which IC50 is reported for this molecule? COc1cc2ncnc(-c3cn(C)nc3-c3ccccc3)c2nc1NC(=O)[C@]12CN(C)C[C@H]1C2(F)F (single isomer, unassigned)
1

GET /values?readout=IC50&item= COCCOc1cc2ncnc(-c3cn(CC(F)F)nc3-c3ccccc3)c2cc1OC
1.2

Which IC50 value belongs to COc1cc2ncnc(-c3cn(C)nc3-c3ccccc3F)c2cc1NC(=O)C1(CN(C)C)CC1 ?
0.8

Query: IC50; subject: COc1cc2ncnc(-c3cn(C)nc3-c3ccccc3)c2cc1NC(=O)C1(c2cccnc2)CC1
0.9

What value of measured IC50 is listed for COc1cc2ncnc(-c3cn(C)nc3-c3ccccc3)c2cc1N1CCC[C@H](O)C1 ?
1.7

Item COc1cc2ncnc(-c3cn(C)nc3-c3ccccc3)c2cc1NC(=O)c1cnn(C)c1 has what recorded IC50?
0.5

// query IC50 value for entry COc1cc2ncnc(-c3cn(C)nc3-c3ccccc3)c2cc1N1CC2(COC2)C1
2.5

Can you look up the measured IC50 of COc1cc2ncnc(-c3cn(C)nc3-c3ccccc3)c2cc1OC(=O)N1C[C@H](C)N(C)C[C@@H]1C for me?
4.9

I'd like to know its IC50. The molecule in question is COc1cc2ncnc(-c3cn(C)nc3-c3ccccc3)c2cc1NC(=O)C(C)(C)N(C)C
2.5

Look at this molecule and give its reported IC50. CCOc1cc2ncnc(-c3cn(C)nc3-c3ccccc3)c2cc1[C@H](C)O (single isomer, unassigned)
0.6

# IC50 lookup, item Cn1cc(-c2ncnc3cc(OC(F)F)c(NC(=O)c4ccc(C5CC5)nc4)nc23)c(-c2ccccc2)n1
4.5

# input molecule: CCOc1cc2ncnc(-c3cn(C)nc3-c3ccccc3)c2cc1NC(=O)c1ccc(C2CC2)nc1 ; wanted: its IC50
0.5

Item COc1cc2ncnc(-c3cn(C)nc3-c3ccccc3F)c2cc1NC(=O)[C@@]12C[C@@H]1CN(C)C2 (single isomer, unassigned) has what recorded IC50?
0.8

Endpoint output: IC50 of COc1cc2ncnc(-c3cn(C)nc3-c3ccccc3)c2cc1-c1cnn(CCN(C)C)c1 . Value?
1.7

# query: IC50 of entry COc1cc2ncnc(-c3cn(C)nc3-c3ccccc3)c2nc1O[C@@H](C)c1ncsc1C (single isomer, unassigned)
1

Record request: IC50 value, item CCOc1cc2ncnc(-c3cn(C)nc3-c3ccc(F)cc3)c2nc1NC(=O)[C@]12C[C@H]1CN(C)C2 (single isomer, unassigned)
0.4

Requested field: IC50. Item: COc1cc2ncnc(-c3cn(C)nc3-c3ccccc3)c2nc1OC(=O)N1CCN(C)C[C@@H]1C
2

Quick check: IC50 of COc1cc2ncnc(-c3cn(C)nc3-c3ccccc3)c2cc1NC(=O)c1ccc(C(F)F)nc1 ?
1.7

Bench note: what IC50 did CCn1cc(-c2ncnc3cc(OC)c(NC(=O)[C@]45COC[C@H]4C5)cc23)c(-c2ccc(F)cc2)n1 show?
1.6

Given the molecule CCn1cc(-c2ncnc3cc(OC)c(NC(=O)[C@]45C[C@H]4CN(C)C5)nc23)c(-c2ccc(F)cc2)n1 (single isomer, unassigned) , what is its reported IC50?
0.9

Need IC50 of COc1cc2ncnc(-c3cn(C)nc3-c3ccc(F)cc3F)c2nc1NC(=O)[C@]12C[C@H]1CN(C)C2 (single isomer, unassigned) , thanks.
1.2

Requested read-out: IC50. Entry: COc1cc2ncnc(-c3cn(C(F)(F)F)nc3-c3ccccc3)c2cc1NC(=O)C12CC(C1)C2
13.4

Fill in: IC50 of COc1cc2ncnc(-c3cn(C)nc3-c3ccccc3F)c2cc1NC(=O)[C@]12C[C@H]1CN(C)C2 (single isomer, unassigned) is ___
1.8
